The measured values listed here are drawn from patent US3959300A.

Recorded minimal effective dose, one value per entry.
# System: approach-avoidance ("conflict") situation
# Experimental Details: Rat Conflict (Approach-Avoidance) Test
# Type: in vivo
# Experimental Setup: po, rat; reexposed after 1 or 2 hours; read-out: Conflict (rat) MED

> print(dat)
                                        smi        reported
1  c1ccc2c(c1)CCc1cccc3c4c(n-2c13)CCN(CC1CC1)C4  10 to 20 mg/kg

Given the entry Cl.c1ccc2c(c1)CCc1cccc3c4c(n-2c13)CCN(CC1CCC1)C4 , what minimal effective dose was observed with approach-avoidance ("conflict") situation?
> 40 mg/kg

One more compound: CC1(CN2CCc3c(c4cccc5c4n3-c3ccccc3CC5)C2)CC1.Cl
10 to 20 mg/kg

One more compound: Cl.c1ccc2c(c1)CCc1cccc3c4c(n-2c13)CCN(CC1CCCC1)C4
> 40 mg/kg

One more compound: Cl.c1ccc2c(c1)CCc1cccc3c4c(n-2c13)CCN(CC1CCCCC1)C4
> 40 mg/kg

---

# Experimental Details: Water solubility
# Type: physicochemical
# Experimental Setup: methanesulfonate salt
Measurement Type: solubility

For CS(=O)(=O)O.c1ccc2c(c1)CCc1cccc3c4c(n-2c13)CCN(CC1CC1)C4 , what is its reported solubility?
> 500 mg/mL
